test: Maximum values of absorbance and fluorescence of the compounds in DMSO; type: physicochemical
reported-endpoint: Absorbance (maximum value) (nm)

Oc1ccccc1-c1nc2ccccc2o1 [HBO, 2-(2-hydroxyphenyl)benzoxazole] :: 380
Oc1ccccc1-c1nc2ccccc2s1 [HBT, 2-(2-hydroxyphenyl)benzothiazole] :: 350
Nc1ccccc1-c1nc2ccccc2[nH]1 :: 360
Oc1ccccc1-c1nc2ccccc2[nH]1 [HBI, 2-(2-hydroxyphenyl)benzimidazole] :: 320
CCN(CC)c1ccc2nc(-c3ccccc3O)[nH]c2c1 :: 360

----------
assay: Maximum values of absorbance and fluorescence of the compounds in DMSO; format: physicochemical
reported-endpoint: Fluorescence (maximum value) (nm)

Nc1ccccc1-c1nc2ccccc2[nH]1 [ABI, 2-(2-Aminophenyl)-1H-benzimidazole] :: 415
Oc1ccccc1-c1nc2ccccc2s1 [HBT, 2-(2-hydroxyphenyl)benzothiazole] :: 515
Oc1ccccc1-c1nc2ccccc2[nH]1 [HBI, 2-(2-hydroxyphenyl)benzimidazole] :: 463
CCN(CC)c1ccc2nc(-c3ccccc3O)[nH]c2c1 [HDBI] :: 448
Oc1ccccc1-c1nc2ccccc2o1 [HBO, 2-(2-hydroxyphenyl)benzoxazole] :: 480
